system: Escherichia coli; assay: Antibacterial activity against Escherichia coli ATCC 25922 measured after 18 to 20 hrs by microbroth dilution method; assay type: functional
QUANTITY_NAME: MIC (µM)
Give just the numeric value; µM need not be written.

The examples below pair each entry with its known result.
MOLECULE | REPORTED
COc1ccc(C2C(C#N)=C(N)Oc3cc(OCc4cn([C@@H]5O[C@H](COC(C)=O)[C@@H](OC(C)=O)[C@H](OC(C)=O)[C@H]5OC(C)=O)nn4)ccc32)cc1OC (stereo partly drawn) | 6.25
COc1cccc(C2C(C#N)=C(N)Oc3cc(OCc4cn([C@@H]5O[C@H](COC(C)=O)[C@@H](OC(C)=O)[C@H](OC(C)=O)[C@H]5OC(C)=O)nn4)ccc32)c1OC (stereo partly drawn) | 200

Now, please, on to the next molecule.
Give recorded MIC. CC(=O)OC[C@H]1O[C@@H](n2cc(COc3ccc4c(c3)OC(N)=C(C#N)C4c3cccc(Cl)c3Cl)nn2)[C@H](OC(C)=O)[C@@H](OC(C)=O)[C@@H]1OC(C)=O (stereo partly drawn)
200

Measured values drawn from ChEMBL document CHEMBL4390647 for this set.
